Test system: PPC-1
protocol-text: Cell viability SRB assay, 96 h
Format: cell-based
experimental-parameters: Homo sapiens, PPC-1, 96 h
Please provide measured IC50 for the entries that follow.
Quick reminder: number only, in µM, skip the unit.

QUERY: Give its IC50 value. Item: COc1cc(OC)cc(C(=O)c2cccc(-c3cc4ccccc4[nH]3)c2)c1 [Compound 82]
RESULT: 0.069

QUERY: How about O=S(=O)(c1ccccc1)n1c(Br)cc2ccccc21 [Compound 3, 2-bromo-1-(benzenesulfonyl)indole] ?
RESULT: 52.1

QUERY: Entry COc1cc(C(O)c2cccc(-c3cc4ccccc4n3S(=O)(=O)c3ccccc3)c2)cc(OC)c1OC (centres unmarked) [Compound 66] please
RESULT: 35.3

QUERY: Same question for O=S(=O)(c1ccccc1)n1c(-c2cccc(C(O)c3cc4ccccc4n3S(=O)(=O)c3ccccc3)c2)cc2ccccc21 (centres unmarked) [Compound 8] please.
RESULT: 30

QUERY: Follow-up item: COc1ccc(C(=O)c2cccc(-c3cc4ccccc4[nH]3)c2)cc1 [Compound 84]
RESULT: 0.9

QUERY: Similarly, O=Cc1cccc(-c2cc3ccccc3n2S(=O)(=O)c2ccccc2)c1 [Compound 5] ?
RESULT: 13.9

QUERY: Subsequent entry: OCc1cccc(-c2cc3ccccc3[nH]2)c1 [Compound 130]
RESULT: 26.6

====

System: HEK293-MRP2
protocol-text: Growth inhibition assay (96 h)
Assay type: cell-based, human
experimental-parameters: HEK293-MRP2, MRP2 over-expressed, 96 h
reported-endpoint: IC50 (nM)
Field format: number, assumed nM, no unit text.

QUERY: Sample "CCc1c2c(nc3ccc(O)cc13)-c1cc3c(c(=O)n1C2)COC(=O)[C@]3(O)CC" — what was its IC50?
RESULT: 12.4

====

Tested on: A375
protocol-text: Cytotoxicity assay (SRB, 48 h)
Assay type: cell-based, human
experimental-parameters: Homo sapiens, A-375, A375 melanoma
reported-endpoint: IC50 (µM)
Your answer is read as µM, so omit the unit and give the number.

QUERY: Entry COc1ccc2[nH]c(C(=O)c3cc(OC)c(OC)c(OC)c3)cc2c1 [Compound 148] : reported IC50 = ?
RESULT: 0.03

QUERY: Another: COc1cc(C(=O)c2cc3ccc(F)cc3n2C)cc(OC)c1OC [Compound 121]
RESULT: 5.87

QUERY: Cool, now COc1cc(C(=O)c2cc3ccc(Cl)cc3n2C)cc(OC)c1OC [Compound 119]
RESULT: 6.65

QUERY: Moving on to the next compound: COc1ccc2cc(C(=O)c3cc(OC)c(OC)c(OC)c3)n(S(=O)(=O)c3ccccc3)c2c1 [Compound 107]
RESULT: 8.22

====

System: DU-145
protocol-text: Growth inhibition assay (SRB, 96 h)
Assay type: cell-based
experimental-parameters: Homo sapiens, DU-145, 96 h
Description: MTT (3-(4,5-dimethylthiazol-2-yl)-2,5-diphenyltetrazolium bromide) assay was also used for the leukemia cell lines. […] Cells were stained with SRB solution or MTT solution.
reported-endpoint: pIC50
Would you please state pIC50, meaning minus log10 of the concentration in mol/L, as a bare number?

QUERY: Consider the compound shown here: "COc1cc(C(=O)c2cccc(-c3cc4ccccc4[nH]3)c2)cc(OC)c1OC" What is its recorded pIC50?
RESULT: 7.64

====

Test system: MCF-7
protocol-text: Cell viability SRB assay, 96 h
Assay type: cell-based
experimental-parameters: Homo sapiens, MCF7; MCF-7, 96 h
reported-endpoint: pIC50
The value called pIC50 is obtained by taking minus log10 of the concentration in mol/L.

QUERY: Could you share which pIC50 value was measured for "COc1cccc(C(=O)c2cccc(-c3cc4ccccc4[nH]3)c2)c1" ?
RESULT: 7.37

QUERY: Again, but for "O=C(c1cccc(-c2cc3ccccc3[nH]2)c1)c1cc2ccccc2[nH]1"
RESULT: 6.79

QUERY: Repeat for the following compound: "COc1cc(C(=O)c2cccc(-c3cc4cc(F)ccc4[nH]3)c2)cc(OC)c1OC"
RESULT: 7.41

QUERY: Further, for "COc1cc(OC)cc(C(=O)c2cccc(-c3cc4ccccc4[nH]3)c2)c1" ?
RESULT: 7.27

QUERY: How about "COc1ccc(C(=O)c2cccc(-c3cc4ccccc4[nH]3)c2)cc1OC" ?
RESULT: 7.37

====

protocol-text: Plasma pharmacokinetics in mice
Format: in vivo
experimental-parameters: mouse, plasma, 10 mg/kg, oral (P.O.), read-out: absolute bioavailability
reported-endpoint: bioavailability (%)
Hi! Could you send only the number? It should be in %, unit omitted.

QUERY: # get_value(readout='bioavailability', item= "O=C(c1cccc(-c2cc3ccccc3[nH]2)c1)c1cc2ccccc2[nH]1" )
RESULT: 29

====

protocol-text: Plasma pharmacokinetics in mice
Format: in vivo
experimental-parameters: mouse, plasma, iv, 10 mg/kg, I.V.
reported-endpoint: Tmax (min)
Use min as the unit, but write only the number.

QUERY: Which Tmax reading was recorded for the compound O=C(c1cccc(-c2cc3ccccc3[nH]2)c1)c1cc2ccccc2[nH]1 [Compound 13] ?
RESULT: 4.8

====

protocol-text: Plasma pharmacokinetics in mice
Format: in vivo
experimental-parameters: mouse, plasma, sc, 10 mg/kg, S.C.
reported-endpoint: Tmax

QUERY: Would you mind telling me what Tmax value was observed for O=C(c1cccc(-c2cc3ccccc3[nH]2)c1)c1cc2ccccc2[nH]1 [Compound 13] ?
RESULT: ~3 h

====

protocol-text: Plasma pharmacokinetics in mice
Assay type: in vivo
experimental-parameters: mouse, plasma, sc, 10 mg/kg, S.C.
reported-endpoint: AUC (ng·h/mL)
Please give a number only; it is taken to be in ng·h/mL.

QUERY: Can you look up the measured AUC of "O=C(c1cccc(-c2cc3ccccc3[nH]2)c1)c1cc2ccccc2[nH]1" for me?
RESULT: 1770

====

Test system: LNCaP
protocol-text: Cell viability SRB assay, 96 h
Format: cell-based
experimental-parameters: Homo sapiens
# note: boundary value 4 µM maps to rule not met; IC50 below it maps to rule met

QUERY: Hello, is IC50 of the following compound strictly smaller than 4 µM? "c1cc(Cc2cc3ccccc3[nH]2)cc(-c2cc3ccccc3[nH]2)c1"
RESULT: rule not met

QUERY: Quick one: "COc1ccc(C(=O)c2cccc(-c3cc4ccccc4[nH]3)c2)cc1"
RESULT: rule met

QUERY: And for COc1cc(C(O)c2cccc(-c3cc4ccccc4[nH]3)c2)cc(OC)c1OC (centres unmarked) [Compound 66A] ?
RESULT: rule met

QUERY: // repeat for "COc1cc(C(=O)c2cccc(-c3cc4cc(F)ccc4[nH]3)c2)cc(OC)c1OC" and report
RESULT: rule met

QUERY: Consider next the compound "COc1cc(OC)cc(C(=O)c2cccc(-c3cc4ccccc4[nH]3)c2)c1" in the same way.
RESULT: rule met

QUERY: Another compound to look at: COc1cc(C(O)c2cccc(-c3cc4ccccc4n3S(=O)(=O)c3ccccc3)c2)cc(OC)c1OC (centres unmarked)
RESULT: rule not met

QUERY: Input OC(c1cccc(-c2cc3ccccc3[nH]2)c1)c1cc2ccccc2[nH]1 (centres unmarked)
RESULT: rule not met

QUERY: Note, next up: "O=S(=O)(c1ccccc1)n1c(Cc2cccc(-c3cc4ccccc4n3S(=O)(=O)c3ccccc3)c2)cc2ccccc21"
RESULT: rule not met

QUERY: Would you mind doing COc1cc(-c2cccc(C(O)c3cc4ccccc4n3S(=O)(=O)c3ccccc3)c2)cc(OC)c1OC (centres unmarked) as well?
RESULT: rule not met

QUERY: Next: "COc1cc(C(=O)c2cccc(-c3cc4ccccc4[nH]3)c2)cc(OC)c1OC"
RESULT: rule met

QUERY: Quick one: "c1ccc2[nH]ccc2c1"
RESULT: rule not met

QUERY: Moving on to the next compound: O=C(c1ccccc1)c1cccc(-c2cc3ccccc3[nH]2)c1 [Compound 80A]
RESULT: rule met

QUERY: What do you get for "OCc1cccc(-c2cc3ccccc3[nH]2)c1" ?
RESULT: rule not met

QUERY: Same read-out for "COc1cc(C(=O)c2cccc(-c3cc4ccccc4n3S(=O)(=O)c3ccccc3)c2)cc(OC)c1OC" ?
RESULT: rule not met

QUERY: Same question, "O=C(c1ccc(F)cc1)c1cccc(-c2cc3ccccc3n2S(=O)(=O)c2ccccc2)c1" this time
RESULT: rule met

QUERY: Try this compound next: "O=C(c1cccc(-c2cc3ccccc3n2S(=O)(=O)c2ccccc2)c1)c1cc2ccccc2n1S(=O)(=O)c1ccccc1"
RESULT: rule not met

QUERY: Now this one: "COC(=O)c1csc(C(=O)c2c[nH]c3ccccc23)n1"
RESULT: rule not met

QUERY: Now consider "COc1ccc(C(=O)c2cccc(-c3cc4ccccc4[nH]3)c2)cc1OC" .
RESULT: rule met

QUERY: Another compound to check: "O=C(c1cccc(-c2cc3ccccc3[nH]2)c1)c1cc2ccccc2[nH]1"
RESULT: rule met

QUERY: Proceed to c1ccc2c(Cc3c[nH]c4ccccc34)c[nH]c2c1 [Compound 128, di(1H-indol-3-yl)methane, reference compound]
RESULT: rule not met

QUERY: Try "O=C(c1ccc(F)cc1)c1cccc(-c2ccc3[nH]ccc3c2)c1" next.
RESULT: rule met

QUERY: One more compound: "O=Cc1cccc(-c2cc3ccccc3n2S(=O)(=O)c2ccccc2)c1"
RESULT: rule not met

QUERY: Then O=S(=O)(c1ccccc1)n1cc(B(O)O)c2ccccc21 [Compound 129, reference compound] ?
RESULT: rule not met

QUERY: What do we get for "COc1cccc(C(=O)c2cccc(-c3cc4ccccc4[nH]3)c2)c1" ?
RESULT: rule met

QUERY: Again, but for "COc1cc(-c2cccc(C(=O)c3cc4ccccc4[nH]3)c2)cc(OC)c1OC"
RESULT: rule met

QUERY: Same lookup for O=S(=O)(c1ccccc1)n1c(B(O)O)cc2ccccc21 [Compound 7, reference compound] , please.
RESULT: rule not met

QUERY: Next: "COc1cc(-c2cccc(C(=O)c3cc4ccccc4n3S(=O)(=O)c3ccccc3)c2)cc(OC)c1OC"
RESULT: rule not met

QUERY: Let us now turn to O=S(=O)(c1ccccc1)n1c(-c2cccc(C(O)c3cc4ccccc4n3S(=O)(=O)c3ccccc3)c2)cc2ccccc21 (centres unmarked)
RESULT: rule not met

QUERY: Same question, "O=S(=O)(c1ccccc1)n1c(Br)cc2ccccc21" this time
RESULT: rule not met

Data origin: patent US20120022121A1
